# experimentalDetails: Chromophore titration, fit to single binding site isotherm: DFHO
# assaySetup: n=1 titration; ± SD of the fit; Table 3C
# Experimental: Table 3A-C. Brightness and chromophore affinities of selected mFAP variants. Fluorescence brightness measurements at 10 μM (top table) and 100 nM (middle table) chromophore concentrations were normalized from 0 to 1 across all three chromophores (DFHBI, DFHBI-1T, and DFHO), and the normalized values for two protein concentrations tested for each chromophore at each chromophore concentration were averaged and standard deviations of the average computed. […] Values with “N/D” were not determined.
pKd: −log10 of the molar value.
measuredQuantity: pKd

molecule	numericReadout
mFAP2.4: SEQ ID NO:59 (protein, (1)..(1) optionally absent) MSRAAQLLPGTWQVTMTNEDGQTSQGQMHFQPRSPYTMDIVAQGTISDGRPIVGYGKATVKTPDTLDVDITYPSLGNIKAQGQITMDSPTQFKFDATTKGAGNFTGRLTGTLQRQE	4.49
mFAP1: SEQ ID NO:33; variant of b11L5F.2 (protein, (1)..(1) optionally absent) MSRAAQLLPGTWQTTMTNEDGQTSQGQMHFQPRSPYTLDVVAQGTISDGRPISGYGKVTVKTDDTLDVDITYPSLGNIKVQGQVTMDSPTQFKFDATTSDGKKLTGTLQRQE	5.11
